Numbers sourced from ChEMBL document CHEMBL1201862.

Target: Large T antigen (Simian virus 40);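 note: Confirmatory-stage PubChem screen for compounds that inhibit SV40 T antigen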
Sequence (P03070 whole entry): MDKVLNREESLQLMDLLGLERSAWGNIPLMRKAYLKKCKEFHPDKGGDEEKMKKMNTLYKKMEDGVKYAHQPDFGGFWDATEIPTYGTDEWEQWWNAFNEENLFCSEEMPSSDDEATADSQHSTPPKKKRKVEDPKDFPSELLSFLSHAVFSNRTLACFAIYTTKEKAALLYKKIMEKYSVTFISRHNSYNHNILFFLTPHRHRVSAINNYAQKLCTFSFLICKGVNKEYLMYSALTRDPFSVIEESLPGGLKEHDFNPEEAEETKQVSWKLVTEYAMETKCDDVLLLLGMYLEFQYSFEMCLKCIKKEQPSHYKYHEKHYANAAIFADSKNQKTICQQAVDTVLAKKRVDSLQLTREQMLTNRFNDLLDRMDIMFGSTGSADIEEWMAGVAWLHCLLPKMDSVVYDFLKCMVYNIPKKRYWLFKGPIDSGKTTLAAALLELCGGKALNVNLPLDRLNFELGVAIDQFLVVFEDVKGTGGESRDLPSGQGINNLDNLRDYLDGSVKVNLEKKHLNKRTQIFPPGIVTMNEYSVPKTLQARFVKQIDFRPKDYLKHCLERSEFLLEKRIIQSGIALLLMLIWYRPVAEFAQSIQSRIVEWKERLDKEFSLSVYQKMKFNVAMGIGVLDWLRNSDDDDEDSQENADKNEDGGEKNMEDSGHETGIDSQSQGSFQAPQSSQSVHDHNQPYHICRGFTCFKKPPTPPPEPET
Format: functional, Betapolyomavirus macacae
The source made the active and inactive calls.
Measured IC50 of individual entries

compound: O=c1c2ccccc2[se]n1-c1ccccc1 [EBSELEN]
IC50: 13.9 µM (active)
//
compound: O=C(O)C1Nc2c(O)cc(Cl)c([N+](=O)[O-])c2C2C=CCC12 (stereo unspecified)
IC50: 9.86 µM (active)
//
compound: O=c1c2cc(O)c(O)cc2oc2cc(O)c(C3OC(CO)C(O)C(O)C3O)c(O)c12 (stereo unspecified)
IC50: 8.63 µM (active)

# lookup: COc1cc(SC#N)ccc1/N=C/c1c(C)[nH]n(-c2ccc(C)cc2)c1=O on Large T antigen (Simian virus 40), IC50 = 21.2 µM (active)

Considering COc1cc(Cn2nnc3ccccc32)ccc1O , its IC50 with Large T antigen (Simian virus 40) was recorded as 7.55 µM (active)

IC50 of O=C(CSc1nnc(-c2ccccc2)[nH]1)c1ccc(O)c(O)c1 , assay on Large T antigen (Simian virus 40), is 15.2 µM (active)

// IC50 (Large T antigen (Simian virus 40)) for Cc1ccc(OC(S)=Nc2ccc(O)cc2)cc1 = 13 µM (active)

Sample O=c1c2ccccc2nc(COc2ccccc2)n1/N=C/c1ccc(O)c(O)c1 , system: Large T antigen (Simian virus 40). Its IC50 is 11.7 µM (active)

Summary: Cc1nonc1C(=O)N/N=C/c1ccc(O)c(O)c1 , Large T antigen (Simian virus 40), IC50 = 3.81 µM (active)

Case CCn1c(C)nc2cc(C(=O)N/N=C/c3ccc(OC)c(O)c3)ccc21 , Large T antigen (Simian virus 40), IC50 recorded as 4.76 µM (active)

Form field, IC50 with Large T antigen (Simian virus 40), item O=C1/C(=C\c2ccc(O)c(O)c2)N=C2CCCCCN12 : 6.68 µM (active)

====

List of EC50 values.
Test: luciferase reporter signal suppression in cells – H4 neuroglioma cells, luminescence, dose response (AID 1990)
Assay type: functional, cell-based
Active and inactive are the calls of the source.

molecule: O=C1C=C(N2CCCCC2)c2ccccc2C1=O
endpoint result: > 120 µM (not active)
--
molecule: C[C@H]1O[C@@H](O[C@H]2[C@@H](O)C[C@H](O[C@H]3[C@@H](O)C[C@H](O[C@H]4CC[C@@]5(C)[C@H](CC[C@@H]6[C@@H]5C[C@@H](O)[C@]5(C)[C@@H](C7=CC(=O)OC7)CC[C@]65O)C4)O[C@@H]3C)O[C@@H]2C)C[C@H](O)[C@@H]1O [DIGOXIN]
endpoint result: < 0.1 µM (active)

Please fill in: EC50 reported for COc1ccc(-n2nc(C(=O)NCC(=O)N3CCN(Cc4ccc5c(c4)OCO5)CC3)c3ccccc3c2=O)cc1OC = 21.3 µM (active)

So, CCC(C)n1ncn(-c2ccc(N3CCN(c4ccc(OCC5COC(Cn6cncn6)(c6ccc(Cl)cc6Cl)O5)cc4)CC3)cc2)c1=O (stereo unspecified) [ITRACONAZOLE] ? Its EC50 was > 120 µM (not active)

// field: EC50; key: Cc1cc2c(c(=O)n1C1CC1)C(c1cccc(Cl)c1)C(C#N)=C(N)O2 (stereo unspecified) ; value = > 120 µM (not active)

// EC50 value for COc1ccc2c(c1OC)C(=O)N1c3ccccc3C(=O)N(c3ccccc3F)C21 (stereo unspecified) : > 120 µM (not active)

Given item CC1(C)Cc2c(sc3c2c(=N)n(Cc2ccco2)c(=O)n3Cc2ccc(Cl)cc2)CO1 , the value recorded as its EC50 is 14.2 µM (active)

Briefly, EC50 measured for Cc1cc(C)c(C2C3=C(Nc4c2c(C)nn4-c2ccccn2)c2ccccc2C3=O)c(C)c1 (stereo unspecified) : 17 µM (active)

Note to self: EC50 recorded for OCCN1CCN(CC(O)COc2ccc(C34CC5CC(CC(C5)C3)C4)cc2)CC1 (stereo unspecified) was > 120 µM (not active)

Consider COc1ccc(C(=O)NC(=O)Nc2cc(C)ccn2)cc1 . Its measured EC50 is 1.67 µM (active)

Form field EC50, entry COc1ccc(-c2csc(NC(=O)c3ccc(C(C)(C)C)cc3)c2C(=O)O)cc1 : 14.5 µM (active)

====

Molecular target: Voltage-gated N-type calcium channel alpha-1B subunit/Amyloid beta A4 precursor protein-binding family A member 1 (Homo sapiens, UniProt Q00975+Q02410)
Sequence (Q00975 whole entry): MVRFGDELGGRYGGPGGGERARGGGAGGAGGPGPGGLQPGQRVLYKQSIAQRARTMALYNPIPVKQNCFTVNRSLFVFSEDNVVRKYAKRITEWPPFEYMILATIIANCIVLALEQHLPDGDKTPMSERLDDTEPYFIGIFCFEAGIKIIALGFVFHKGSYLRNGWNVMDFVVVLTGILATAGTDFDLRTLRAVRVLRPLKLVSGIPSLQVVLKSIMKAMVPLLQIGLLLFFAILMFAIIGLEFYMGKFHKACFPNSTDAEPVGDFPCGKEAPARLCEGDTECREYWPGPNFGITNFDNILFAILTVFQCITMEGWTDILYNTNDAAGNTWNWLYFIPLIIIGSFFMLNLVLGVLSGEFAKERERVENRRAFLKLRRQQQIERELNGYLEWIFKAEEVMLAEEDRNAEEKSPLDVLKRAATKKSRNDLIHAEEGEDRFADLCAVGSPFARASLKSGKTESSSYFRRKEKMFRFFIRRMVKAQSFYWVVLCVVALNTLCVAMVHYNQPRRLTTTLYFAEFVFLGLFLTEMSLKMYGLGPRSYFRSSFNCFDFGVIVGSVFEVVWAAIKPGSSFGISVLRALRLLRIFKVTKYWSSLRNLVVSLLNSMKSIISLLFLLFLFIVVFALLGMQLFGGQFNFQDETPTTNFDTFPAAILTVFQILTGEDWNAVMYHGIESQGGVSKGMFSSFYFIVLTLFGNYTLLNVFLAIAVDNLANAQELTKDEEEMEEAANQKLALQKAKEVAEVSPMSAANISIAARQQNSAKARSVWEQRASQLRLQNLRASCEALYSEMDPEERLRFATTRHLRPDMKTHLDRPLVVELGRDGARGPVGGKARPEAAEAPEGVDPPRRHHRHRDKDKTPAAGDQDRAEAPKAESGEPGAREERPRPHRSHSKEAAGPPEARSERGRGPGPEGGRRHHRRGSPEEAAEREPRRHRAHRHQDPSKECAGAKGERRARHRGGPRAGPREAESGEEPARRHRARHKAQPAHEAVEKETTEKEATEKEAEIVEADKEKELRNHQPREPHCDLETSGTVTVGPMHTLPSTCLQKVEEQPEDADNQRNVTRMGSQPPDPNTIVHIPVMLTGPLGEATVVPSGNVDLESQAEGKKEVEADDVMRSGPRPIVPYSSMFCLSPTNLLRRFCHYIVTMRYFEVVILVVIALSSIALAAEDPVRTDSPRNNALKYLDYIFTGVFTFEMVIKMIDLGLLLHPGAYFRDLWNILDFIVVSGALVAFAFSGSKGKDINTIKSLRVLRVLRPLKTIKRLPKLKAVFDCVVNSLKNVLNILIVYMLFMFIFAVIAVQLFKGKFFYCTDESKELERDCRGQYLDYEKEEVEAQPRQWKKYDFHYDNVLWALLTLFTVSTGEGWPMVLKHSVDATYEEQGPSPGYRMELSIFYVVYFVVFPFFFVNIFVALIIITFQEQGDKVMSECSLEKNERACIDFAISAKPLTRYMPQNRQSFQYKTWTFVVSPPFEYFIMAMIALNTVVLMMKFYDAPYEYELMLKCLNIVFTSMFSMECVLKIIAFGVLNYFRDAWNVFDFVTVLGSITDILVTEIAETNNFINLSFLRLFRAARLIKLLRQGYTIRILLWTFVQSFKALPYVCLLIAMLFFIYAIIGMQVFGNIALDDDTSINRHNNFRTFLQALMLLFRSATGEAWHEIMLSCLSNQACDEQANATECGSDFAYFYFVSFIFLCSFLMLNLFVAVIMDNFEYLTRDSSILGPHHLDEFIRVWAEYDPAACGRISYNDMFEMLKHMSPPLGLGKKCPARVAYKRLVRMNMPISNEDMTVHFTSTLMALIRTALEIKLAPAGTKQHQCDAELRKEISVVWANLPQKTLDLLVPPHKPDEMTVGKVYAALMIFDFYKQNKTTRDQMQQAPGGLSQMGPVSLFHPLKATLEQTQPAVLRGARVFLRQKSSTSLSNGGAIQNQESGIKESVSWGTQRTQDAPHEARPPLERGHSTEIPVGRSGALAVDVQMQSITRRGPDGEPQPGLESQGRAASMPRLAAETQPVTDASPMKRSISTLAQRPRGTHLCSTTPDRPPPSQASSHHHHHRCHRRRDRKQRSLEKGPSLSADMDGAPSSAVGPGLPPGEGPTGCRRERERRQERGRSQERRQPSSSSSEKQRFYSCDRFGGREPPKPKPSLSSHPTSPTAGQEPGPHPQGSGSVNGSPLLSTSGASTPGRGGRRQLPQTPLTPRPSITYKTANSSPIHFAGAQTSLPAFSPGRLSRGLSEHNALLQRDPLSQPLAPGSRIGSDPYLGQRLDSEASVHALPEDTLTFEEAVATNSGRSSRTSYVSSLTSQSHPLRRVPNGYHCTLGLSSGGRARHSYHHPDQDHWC
Sequence (Q02410 whole entry): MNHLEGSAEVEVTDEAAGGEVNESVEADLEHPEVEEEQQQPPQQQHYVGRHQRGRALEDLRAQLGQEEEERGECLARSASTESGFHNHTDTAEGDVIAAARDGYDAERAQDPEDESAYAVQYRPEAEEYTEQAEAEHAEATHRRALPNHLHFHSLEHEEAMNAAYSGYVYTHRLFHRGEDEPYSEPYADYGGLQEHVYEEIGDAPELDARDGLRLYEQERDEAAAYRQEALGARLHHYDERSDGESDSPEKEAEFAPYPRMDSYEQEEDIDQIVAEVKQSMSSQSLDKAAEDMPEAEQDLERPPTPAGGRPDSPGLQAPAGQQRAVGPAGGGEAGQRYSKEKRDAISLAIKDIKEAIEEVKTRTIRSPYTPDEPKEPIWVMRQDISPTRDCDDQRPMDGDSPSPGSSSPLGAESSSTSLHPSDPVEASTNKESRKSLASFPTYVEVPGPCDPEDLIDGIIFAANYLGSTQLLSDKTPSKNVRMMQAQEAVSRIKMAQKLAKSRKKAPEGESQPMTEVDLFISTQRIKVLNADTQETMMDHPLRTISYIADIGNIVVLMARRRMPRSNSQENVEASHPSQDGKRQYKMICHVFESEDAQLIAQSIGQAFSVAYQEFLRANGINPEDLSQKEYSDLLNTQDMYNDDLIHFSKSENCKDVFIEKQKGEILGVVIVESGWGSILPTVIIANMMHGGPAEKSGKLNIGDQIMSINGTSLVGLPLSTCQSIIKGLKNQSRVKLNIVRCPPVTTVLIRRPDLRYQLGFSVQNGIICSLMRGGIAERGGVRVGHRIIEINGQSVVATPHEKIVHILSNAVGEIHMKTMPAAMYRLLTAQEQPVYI
Type: protein assay
Active and inactive are the calls of the source.
Listing of recorded IC50 by entry.

Completed entries (count: 5):
compound: Oc1cccc2cc3cccc(O)c3c(O)c12
IC50: 38.3 µM (active)

compound: O=C(c1ccc2nc(-c3ccco3)c(-c3ccco3)nc2c1)N1CCC2(CC1)OCCO2
IC50: 1.39 µM (active)

compound: CC1=C(C(=O)O)N2C(=O)C(NC(=O)c3ccccc3Cl)C2SC1 (stereo unspecified)
IC50: > 50 µM (inactive)

compound: CCOC(=O)c1ccc(N2C(=O)C=CC2=O)cc1
IC50: 2.46 µM (active)

compound: CCOC(=O)c1sc2nc(-c3ccco3)c3c(c2c1N)CC(C)(C)OC3
IC50: 5.26 µM (active)

Lab note: next compound to report on.
Cc1nc2sc(C(=O)OC(C)C)c(N)c2c(C)c1C has a reported IC50 of > 50 µM (inactive)

====

Listing: EC50 of selected compounds
Target: ATP-dependent molecular chaperone HSP82 (Candida albicans (strain WO-1) (Yeast), UniProt C4YTQ8)
Sequence (C4YTQ8 whole entry): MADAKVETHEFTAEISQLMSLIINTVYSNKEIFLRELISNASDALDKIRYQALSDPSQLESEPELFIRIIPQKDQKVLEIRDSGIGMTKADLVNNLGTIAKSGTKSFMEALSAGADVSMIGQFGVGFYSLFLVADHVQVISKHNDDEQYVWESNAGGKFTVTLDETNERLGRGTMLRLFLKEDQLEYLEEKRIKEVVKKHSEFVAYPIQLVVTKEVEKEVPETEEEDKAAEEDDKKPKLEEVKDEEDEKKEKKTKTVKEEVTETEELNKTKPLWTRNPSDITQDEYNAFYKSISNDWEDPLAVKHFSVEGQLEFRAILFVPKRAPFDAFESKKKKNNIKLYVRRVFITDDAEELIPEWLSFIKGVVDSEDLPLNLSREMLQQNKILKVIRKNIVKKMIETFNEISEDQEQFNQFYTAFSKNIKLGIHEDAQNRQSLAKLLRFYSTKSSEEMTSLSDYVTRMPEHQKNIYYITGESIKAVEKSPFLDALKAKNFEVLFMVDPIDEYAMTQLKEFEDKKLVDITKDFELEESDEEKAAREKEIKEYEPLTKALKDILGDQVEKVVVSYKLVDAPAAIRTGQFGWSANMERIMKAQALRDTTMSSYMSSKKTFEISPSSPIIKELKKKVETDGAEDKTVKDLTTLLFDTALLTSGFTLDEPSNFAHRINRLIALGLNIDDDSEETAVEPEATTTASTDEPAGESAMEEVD
Test: steroid-induced GRE reporter decrease in yeast – S. cerevisiae, luminescence, Hsp90 inhibitor project, dose response (AID 2400);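 note: beta-galactosidase luminescence from glucocorticoid response element reporter as proxy for Hsp90 function; inhibitor potency where signal loss means Hsp90 inhibition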
Assay type: functional, cell-based
Activity calls are given as the source filed them.

Here is how some compounds turned out for EC50.
compound: CCCC(=O)NC(c1ccco1)c1cc([N+](=O)[O-])c2cccnc2c1O (centres undefined)
EC50: > 150 µM (inactive)

compound: O=C(Oc1c(CN2CCOCC2)cc(Cl)c2cccnc12)c1ccc(F)cc1
EC50: > 160 µM (inactive)

compound: O=C1/C(=C/c2cccnc2)CCc2c1[nH]c1ccccc21
EC50: > 150 µM (inactive)

Okay, next one:
The value of EC50 measured for the compound CC(C)(C)c1ccc(OCCCC(=O)NNC(=O)c2ccccc2O)cc1 turned out to be > 160 µM (inactive)

====

Target: Dual specificity tyrosine-phosphorylation-regulated kinase 1A (Rattus norvegicus, UniProt Q63470)
Type: biochemical, Homo sapiens
Activity calls are given as the source filed them.
test readout: AC50

Past entries and their recorded results:
compound: COc1cc(-c2oc3cc(O)cc(O)c3c(=O)c2O[C@@H]2O[C@H](COC3O[C@@H](C)[C@H](O)[C@@H](O)[C@H]3O)[C@@H](O)[C@H](O)[C@H]2O)ccc1O (stereo not given in full)
test readout: AC50
endpoint result: 4620 nM (active)

compound: O=C(O)c1ccc(-c2ccc(/C=c3/sc4nc5ccccc5n4c3=O)o2)cc1Cl
test readout: AC50
endpoint result: 2000 nM (active)

compound: O=C(N/N=C/c1ccc(O)c(O)c1)N/N=C/c1ccc(O)c(O)c1
test readout: AC50
endpoint result: 1630 nM (active)

compound: N#Cc1c(Br)n(C2OC(CO)C(O)C2O)c2ncnc(N)c12 (stereo not given)
test readout: AC50
endpoint result: 2090 nM (active)

Proceed to the following item.
Cc1ccc2c(c1C)-c1c(ccc(C)c1C)C(=O)C2=O yielded AC50 of 3160 nM (active)

====

Reported values of AC50 for individual entries
Biological target: UniProt:P08684
Sequence (P08684 whole entry): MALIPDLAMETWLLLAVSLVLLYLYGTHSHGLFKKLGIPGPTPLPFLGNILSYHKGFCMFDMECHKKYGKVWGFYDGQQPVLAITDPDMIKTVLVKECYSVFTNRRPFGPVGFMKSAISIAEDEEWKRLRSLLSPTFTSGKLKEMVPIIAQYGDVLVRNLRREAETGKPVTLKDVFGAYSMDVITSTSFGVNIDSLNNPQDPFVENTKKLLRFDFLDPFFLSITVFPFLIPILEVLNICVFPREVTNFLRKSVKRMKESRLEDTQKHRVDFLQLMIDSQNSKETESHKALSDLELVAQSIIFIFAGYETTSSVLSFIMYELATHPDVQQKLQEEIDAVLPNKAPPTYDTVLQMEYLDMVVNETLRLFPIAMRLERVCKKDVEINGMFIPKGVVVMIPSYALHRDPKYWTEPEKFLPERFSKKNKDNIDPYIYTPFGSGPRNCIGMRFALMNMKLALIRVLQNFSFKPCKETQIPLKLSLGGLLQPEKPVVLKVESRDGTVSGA

Example cases with answers are listed next.
compound: COCCn1c(=O)c(-c2cccc(Cl)c2)nc2cncnc21
AC50: 15.8 µM (inconclusive)
//
compound: COCC(=O)N1CCC[C@@]2(CCN(C(=O)Nc3cccc(F)c3)C2)C1
AC50: 25.1 µM (inconclusive)
//
compound: Cc1ccc(NC(=O)CN2CCC(NC(=O)Cc3ccccc3)CC2)cc1C
AC50: 14.1 µM (inconclusive)
//
compound: CC(C)CN1CC[C@@]2(CCCN(C(=O)c3ccco3)C2)C1
AC50: 12.6 µM (inconclusive)
//
compound: O=C(CCn1nc(-c2ccc(Cl)cc2)ccc1=O)N1CCOCC1
AC50: 25.1 µM (inconclusive)

For record O=C(NC(=S)Nc1cccc(Cl)c1N1CCCCC1)c1ccco1 the listed AC50 is 15.8 µM (inconclusive)

# AC50 (compound: N/C(S)=N/CCC[C@@H](N)C(=O)O ) is 0.2 µM (inconclusive)

Memo: O=C(Nc1cccc(C(F)(F)F)c1)c1cccn(Cc2ccc3c(c2)OC(F)(F)O3)c1=O , reported AC50: 25.1 µM (inconclusive)

The recorded AC50 for CCN(CC)S(=O)(=O)c1cccc(C(=O)N[C@H](C(=O)OCC(=O)NC(=O)NC)C(C)C)c1 is 14.1 µM (inconclusive)

// AC50 lookup, compound = CC[C@H]1C2=C3C(CC[C@H]4C(OCc5ccc(F)cc5C(F)(F)F)OC[C@](C)([C@@H]34)N(C(=O)OC(C)(C)C)C2)C(COC(C)=O)C1COC(C)=O (stereo partly specified) , result: 2.51 µM (inconclusive)

Sure, the documented AC50 for Cc1nc(SCC(=O)c2ccc(Cl)s2)c2oc3ccccc3c2n1 is 2.82 µM (inconclusive)
